# MEASUREMENT TARGET: Muscarinic acetylcholine receptor M1 (Homo sapiens)
# Sequence (P11229 whole entry): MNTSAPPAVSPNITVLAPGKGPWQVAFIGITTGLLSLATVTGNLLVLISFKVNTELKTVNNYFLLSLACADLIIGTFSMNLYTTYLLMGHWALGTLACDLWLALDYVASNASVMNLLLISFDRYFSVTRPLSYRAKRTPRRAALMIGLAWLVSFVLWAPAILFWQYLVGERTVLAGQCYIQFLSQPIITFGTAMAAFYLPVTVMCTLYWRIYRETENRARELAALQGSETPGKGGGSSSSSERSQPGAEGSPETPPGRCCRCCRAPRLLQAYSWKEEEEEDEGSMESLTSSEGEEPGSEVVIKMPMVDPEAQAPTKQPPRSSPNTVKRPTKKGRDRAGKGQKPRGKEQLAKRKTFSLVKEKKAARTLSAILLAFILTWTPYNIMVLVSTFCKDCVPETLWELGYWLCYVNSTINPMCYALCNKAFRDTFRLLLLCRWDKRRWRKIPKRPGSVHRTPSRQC
# TEST METHOD NOTES: Displacement of [3H]-NMS from human muscarinic M1 receptor stably expressed in CHO-K9 cells by radioligand competitive binding assay
# Format: cell-based
pKi: −log10 of the molar value.

ENTRY SMILES	pKi
C[N+]1=C(/C=C/C=C/C=C2/N(CCCCCC(=O)NCCCCC3CCN(CC(=O)N4c5ccccc5NC(=O)c5ccccc54)CC3)c3ccccc3C2(C)C)C(C)(C)c2ccccc21	6.92
NCCN1CCN(CCCCC2CCN(CC(=O)N3c4ccccc4NC(=O)c4ccccc43)CC2)CC1	8.23
CC1(C)C(/C=C/C=C/C=C2/N(CCCCCC(=O)NCCNC(=O)CCc3cn(CCCCC4CCN(CC(=O)N5c6ccccc6NC(=O)c6ccccc65)CC4)cn3)c3ccc(S(=O)(=O)O)cc3C2(C)C)=[N+](CCCCS(=O)(=O)[O-])c2ccccc21.O=C(O)C(F)(F)F	8.28
CC1(C)C(/C=C/C=C/C=C2/N(CCCCCC(=O)NCCN3CCN(CCCCC4CCN(CC(=O)N5c6ccccc6NC(=O)c6ccccc65)CC4)CC3)c3ccccc3C2(C)C)=[N+](CCCCS(=O)(=O)[O-])c2ccccc21	8.00
CC1(C)C(/C=C/C=C/C=C2/N(CCCCCC(=O)NCCCCC3CCN(CC(=O)N4c5ccccc5NC(=O)c5ccccc54)CC3)c3ccccc3C2(C)C)=[N+](CCCCS(=O)(=O)[O-])c2ccccc21	6.46
C[N+]1=C(/C=C/C=C/C=C2/N(CCCCCC(=O)NCCN3CCN(CCCCC4CCN(CC(=O)N5c6ccccc6NC(=O)c6ccccc65)CC4)CC3)c3ccccc3C2(C)C)C(C)(C)c2ccccc21	7.82
Cc1cc(/C=C/C=C/c2ccc(N(C)C)cc2)cc(C)[n+]1CCCCC1CCN(CC(=O)N2c3ccccc3NC(=O)c3ccccc32)CC1	7.51
CC1(C)C(/C=C/C=C/C=C2/N(CCCCCC(=O)NCCN3CCN(CCCCC4CCN(CC(=O)N5c6ccccc6NC(=O)c6ccccc65)CC4)CC3)c3ccc(S(=O)(=O)O)cc3C2(C)C)=[N+](CCCCS(=O)(=O)[O-])c2ccccc21.O=C(O)C(F)(F)F.O=C(O)C(F)(F)F	8.54

---

# MEASUREMENT TARGET: Muscarinic acetylcholine receptor M2 (Homo sapiens, UniProt P08172)
# Sequence (P08172 whole entry): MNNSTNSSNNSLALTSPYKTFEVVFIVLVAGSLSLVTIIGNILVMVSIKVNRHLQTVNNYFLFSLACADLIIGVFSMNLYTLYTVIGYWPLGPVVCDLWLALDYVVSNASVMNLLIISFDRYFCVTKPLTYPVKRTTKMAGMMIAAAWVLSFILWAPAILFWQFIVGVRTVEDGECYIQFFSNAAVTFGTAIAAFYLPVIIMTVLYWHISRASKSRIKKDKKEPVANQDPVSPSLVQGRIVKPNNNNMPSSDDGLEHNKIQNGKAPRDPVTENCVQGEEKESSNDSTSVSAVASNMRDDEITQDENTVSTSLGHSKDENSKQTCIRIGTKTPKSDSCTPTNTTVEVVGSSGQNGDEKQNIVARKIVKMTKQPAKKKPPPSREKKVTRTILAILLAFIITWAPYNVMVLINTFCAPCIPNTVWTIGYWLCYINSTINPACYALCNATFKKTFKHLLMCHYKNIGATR
# TEST METHOD NOTES: Displacement of [3H]-NMS from human muscarinic M2 receptor stably expressed in CHO-K9 cells by radioligand competitive binding assay
# Type: cell-based
Form field: Ki (one value per entry).

ENTRY SMILES	MEASUREMENT TARGET	UNIT LABEL	Ki
Cc1cc(/C=C/C=C/c2ccc(N(C)C)cc2)cc(C)[n+]1CCN1CCN(CCCCC2CCN(CC(=O)N3c4ccccc4NC(=O)c4ccccc43)CC2)CC1	Muscarinic acetylcholine receptor M2 (Homo sapiens, UniProt P08172)	nM	3.02
NCCN1CCN(CCCCC2CCN(CC(=O)N3c4ccccc4NC(=O)c4ccccc43)CC2)CC1	Muscarinic acetylcholine receptor M2 (Homo sapiens, UniProt P08172)	nM	0.182
CC1(C)C(/C=C/C=C/C=C2/N(CCCCCC(=O)NCc3cc(C(=O)NCCNC(=O)CCc4cn(CCCCC5CCN(CC(=O)N6c7ccccc7NC(=O)c7ccccc76)CC5)cn4)cc(C(=O)NCCNC(=O)CCc4cn(CCCCC5CCN(CC(=O)N6c7ccccc7NC(=O)c7ccccc76)CC5)cn4)c3)c3ccccc3C2(C)C)=[N+](CCCCS(=O)(=O)[O-])c2ccccc21	Muscarinic acetylcholine receptor M2 (Homo sapiens, UniProt P08172)	nM	1.41
CC1(C)C(/C=C/C=C/C=C2/N(CCCCCC(=O)NCCN3CCN(CCCCC4CCN(CC(=O)N5c6ccccc6NC(=O)c6ccccc65)CC4)CC3)c3ccccc3C2(C)C)=[N+](CCCCS(=O)(=O)[O-])c2ccccc21	Muscarinic acetylcholine receptor M2 (Homo sapiens, UniProt P08172)	nM	1.35
CC1(C)C(/C=C/C=C/C=C2/N(CCCCCC(=O)NCc3cc(C(=O)NCCNC(=O)CCc4cn(CCCCC5CCN(CC(=O)N6c7ccccc7NC(=O)c7ccccc76)CC5)cn4)cc(C(=O)NCCNC(=O)CCc4cn(CCCCC5CCN(CC(=O)N6c7ccccc7NC(=O)c7ccccc76)CC5)cn4)c3)c3ccc(S(=O)(=O)O)cc3C2(C)C)=[N+](CCCCS(=O)(=O)[O-])c2ccccc21.O=C(O)C(F)(F)F.O=C(O)C(F)(F)F.O=C(O)C(F)(F)F	Muscarinic acetylcholine receptor M2 (Homo sapiens, UniProt P08172)	nM	0.631
CC1(C)C(/C=C/C=C/C=C2/N(CCCCCC(=O)NCCNC(=O)CCc3cn(CCCCC4CCN(CC(=O)N5c6ccccc6NC(=O)c6ccccc65)CC4)cn3)c3ccc(S(=O)(=O)O)cc3C2(C)C)=[N+](CCCCS(=O)(=O)[O-])c2ccccc21.O=C(O)C(F)(F)F	Muscarinic acetylcholine receptor M2 (Homo sapiens, UniProt P08172)	nM	0.794
Cc1cc(/C=C/C=C/c2ccc(N(C)C)cc2)cc(C)[n+]1CCCCC1CCN(CC(=O)N2c3ccccc3NC(=O)c3ccccc32)CC1	Muscarinic acetylcholine receptor M2 (Homo sapiens, UniProt P08172)	nM	17
NCCCCC1CCN(CC(=O)N2c3ccccc3NC(=O)c3ccccc32)CC1	Muscarinic acetylcholine receptor M2 (Homo sapiens, UniProt P08172)	nM	10.7
C[N+]1=C(/C=C/C=C/C=C2/N(CCCCCC(=O)NCCN3CCN(CCCCC4CCN(CC(=O)N5c6ccccc6NC(=O)c6ccccc65)CC4)CC3)c3ccccc3C2(C)C)C(C)(C)c2ccccc21	Muscarinic acetylcholine receptor M2 (Homo sapiens, UniProt P08172)	nM	4.47
C[N+]1=C(/C=C/C=C/C=C2/N(CCCCCC(=O)NCCCCC3CCN(CC(=O)N4c5ccccc5NC(=O)c5ccccc54)CC3)c3ccccc3C2(C)C)C(C)(C)c2ccccc21	Muscarinic acetylcholine receptor M2 (Homo sapiens, UniProt P08172)	nM	53.7
CC1(C)C(/C=C/C=C/C=C2/N(CCCCCC(=O)NCc3cc(C(=O)NCCN4CCC(N5CCC(n6c(=O)[nH]c7ccccc76)CC5)CC4)cc(C(=O)NCCN4CCN(CCCCC5CCN(CC(=O)N6c7ccccc7NC(=O)c7ccccc76)CC5)CC4)c3)c3ccc(S(=O)(=O)[O-])cc3C2(C)C)=[N+](CCCCS(=O)(=O)O)c2ccccc21.O=C(O)C(F)(F)F.O=C(O)C(F)(F)F.O=C(O)C(F)(F)F.O=C(O)C(F)(F)F	Muscarinic acetylcholine receptor M2 (Homo sapiens, UniProt P08172)	nM	0.257
NCc1cc(C(=O)NCCNC(=O)CCc2cn(CCCCC3CCN(CC(=O)N4c5ccccc5NC(=O)c5ccccc54)CC3)cn2)cc(C(=O)NCCNC(=O)CCc2cn(CCCCC3CCN(CC(=O)N4c5ccccc5NC(=O)c5ccccc54)CC3)cn2)c1	Muscarinic acetylcholine receptor M2 (Homo sapiens, UniProt P08172)	nM	0.269
CC1(C)C(/C=C/C=C/C=C2/N(CCCCCC(=O)NCCN3CCN(CCCCC4CCN(CC(=O)N5c6ccccc6NC(=O)c6ccccc65)CC4)CC3)c3ccc(S(=O)(=O)O)cc3C2(C)C)=[N+](CCCCS(=O)(=O)[O-])c2ccccc21.O=C(O)C(F)(F)F.O=C(O)C(F)(F)F	Muscarinic acetylcholine receptor M2 (Homo sapiens, UniProt P08172)	nM	0.525
CC1(C)C(/C=C/C=C/C=C2/N(CCCCCC(=O)NCCCCC3CCN(CC(=O)N4c5ccccc5NC(=O)c5ccccc54)CC3)c3ccccc3C2(C)C)=[N+](CCCCS(=O)(=O)[O-])c2ccccc21	Muscarinic acetylcholine receptor M2 (Homo sapiens, UniProt P08172)	nM	141
CC1(C)C(/C=C/C=C/C=C2/N(CCCCCC(=O)NCCNC(=O)CCc3cn(CCCCC4CCN(CC(=O)N5c6ccccc6NC(=O)c6ccccc65)CC4)cn3)c3ccccc3C2(C)C)=[N+](CCCCS(=O)(=O)[O-])c2ccccc21	Muscarinic acetylcholine receptor M2 (Homo sapiens, UniProt P08172)	nM	0.933
NCCNC(=O)CCc1cn(CCCCC2CCN(CC(=O)N3c4ccccc4NC(=O)c4ccccc43)CC2)cn1	Muscarinic acetylcholine receptor M2 (Homo sapiens, UniProt P08172)	nM	0.589
